Test system: HCK
Assay: KINOMEscan kinase binding assay
Conditions: at 1 μM
Property: % Ctrl; scope: individual molecules
measured endpoint: % Ctrl (%)

smiles_code=C[C@@H]1COCc2nn(C)cc2-c2cc(Cl)c3c(c2)/C(=C/c2[nH]ccc2C(=O)N1)C(=O)N3 endpoint_value=100
smiles_code=Cc1cc2c([nH]1)/C=C1\C(=O)Nc3ccc(cc31)-c1c(nn(C)c1C)COCCN(C)C2=O endpoint_value=100
smiles_code=Cc1cc2c([nH]1)/C=C1\C(=O)Nc3ccc(cc31)-c1c(nn(C)c1C)OCCCN(C)C2=O endpoint_value=93
smiles_code=Cc1cc2c([nH]1)/C=C1\C(=O)Nc3c(Cl)cc(cc31)-c1cn(C)nc1COC[C@@H](C)N(C)C2=O endpoint_value=100
smiles_code=Cc1cc2c([nH]1)/C=C1\C(=O)Nc3c(Cl)cc(cc31)-c1cn(C)nc1COC[C@@H](C)NC2=O endpoint_value=100

###

System: RET(V804L)
Assay: KINOMEscan kinase binding assay
Details: at 1 μM
Property: % Ctrl; scope: individual compounds
measured endpoint: % Ctrl

smiles_code=Cc1cc2c([nH]1)/C=C1\C(=O)Nc3ccc(cc31)-c1c(nn(C)c1C)OCCCN(C)C2=O target_or_system=RET(V804L) measured_endpoint="% Ctrl" endpoint_value=82%
smiles_code=Cc1cc2c([nH]1)/C=C1\C(=O)Nc3c(Cl)cc(cc31)-c1cn(C)nc1COC[C@@H](C)NC2=O target_or_system=RET(V804L) measured_endpoint="% Ctrl" endpoint_value=98%
smiles_code=Cc1cc2c([nH]1)/C=C1\C(=O)Nc3ccc(cc31)-c1c(nn(C)c1C)COCCN(C)C2=O target_or_system=RET(V804L) measured_endpoint="% Ctrl" endpoint_value=80%
smiles_code=Cc1cc2c([nH]1)/C=C1\C(=O)Nc3c(Cl)cc(cc31)-c1cn(C)nc1COC[C@@H](C)N(C)C2=O target_or_system=RET(V804L) measured_endpoint="% Ctrl" endpoint_value=84%
smiles_code=C[C@@H]1COCc2nn(C)cc2-c2cc(Cl)c3c(c2)/C(=C/c2[nH]ccc2C(=O)N1)C(=O)N3 target_or_system=RET(V804L) measured_endpoint="% Ctrl" endpoint_value=95%

###

Target: TYK2(JH2domain-pseudokinase)
Assay: KINOMEscan kinase binding assay
Conditions: read-out: TYK2(JH2 domain-pseudokinase) Kd
Kd strictly less than 2 nM = YES. Otherwise NO.

compound="Cc1cc2c([nH]1)/C=C1\\C(=O)Nc3c(Cl)cc(cc31)-c1[nH]c(C)nc1COC[C@@H](C)N(C)C2=O [Cpd. 9]" target_or_system=TYK2(JH2domain-pseudokinase) label=YES
compound="Cc1cc2c([nH]1)/C=C1\\C(=O)Nc3c(Cl)cc(cc31)-c1cn(C)nc1COCCN(C)C2=O [Cpd. 7]" target_or_system=TYK2(JH2domain-pseudokinase) label=YES
compound="Cc1cc2c([nH]1)/C=C1\\C(=O)Nc3c(F)cc(cc31)-c1c(nn(C)c1C)COC[C@@H](C)N(C)C2=O [compound 11]" target_or_system=TYK2(JH2domain-pseudokinase) label=NO
compound="Cc1cc2c([nH]1)/C=C1\\C(=O)Nc3c(Cl)cc(cc31)-c1cn(C)nc1COC[C@H](C)N(C)C2=O [compound 6]" target_or_system=TYK2(JH2domain-pseudokinase) label=NO
compound="C[C@@H]1COCc2nn(C)cc2-c2cc(Cl)c3c(c2)/C(=C/c2[nH]ccc2C(=O)N1)C(=O)N3 [Cpd. 4]" target_or_system=TYK2(JH2domain-pseudokinase) label=YES
compound="Cc1cc2c([nH]1)/C=C1\\C(=O)Nc3c(Cl)cc(cc31)-c1cn(C)nc1COC[C@@H](C)NC2=O [Cpd. 3]" target_or_system=TYK2(JH2domain-pseudokinase) label=NO
compound="Cc1cc2c([nH]1)/C=C1\\C(=O)Nc3c(Cl)cc(cc31)-c1cn(C)nc1COC[C@@H](C)N(C)C2=O [Cpd. 5]" target_or_system=TYK2(JH2domain-pseudokinase) label=YES

Data origin: patent US20250074920A1
